# tested_on: FleA (AFL, Aspergillus fumigatus lectin) (Aspergillus fumigatus, UniProt Q4WW81)
# Construct: about 34 kDa; no canonical signal peptide
# Sequence (Q4WW81 whole entry): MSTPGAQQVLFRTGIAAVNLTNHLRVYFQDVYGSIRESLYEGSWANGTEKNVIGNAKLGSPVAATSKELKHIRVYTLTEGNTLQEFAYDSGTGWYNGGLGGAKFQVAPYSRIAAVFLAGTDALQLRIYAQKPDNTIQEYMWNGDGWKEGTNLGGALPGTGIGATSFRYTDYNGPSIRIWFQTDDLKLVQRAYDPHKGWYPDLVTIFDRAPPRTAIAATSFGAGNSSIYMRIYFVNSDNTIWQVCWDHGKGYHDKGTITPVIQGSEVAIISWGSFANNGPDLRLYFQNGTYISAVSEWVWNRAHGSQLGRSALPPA
# assay_summary: competition plate assay: biotinylated FleA binding to immobilised human airway mucin
endpoint_label: pIC50
By convention, pIC50 is the negative base-10 log of a molar concentration.

Entry C=CCO[C@@H]1O[C@@H](C)[C@@H](O)[C@@H](O)[C@@H]1O [allyl α-L-fucopyranoside] under FleA (AFL, Aspergillus fumigatus lectin) (Aspergillus fumigatus, UniProt Q4WW81) had pIC50 of 3.58

Entry CCC/C=C/CO[C@@H]1O[C@@H](C)[C@@H](O)[C@@H](O)[C@@H]1O [(2E)-hexenyl α-L-fucopyranoside] under FleA (AFL, Aspergillus fumigatus lectin) (Aspergillus fumigatus, UniProt Q4WW81) had pIC50 of 7.92

Entry CO[C@@H]1O[C@@H](C)[C@@H](O)[C@@H](O)[C@@H]1O [methyl α-L-fucopyranoside] under FleA (AFL, Aspergillus fumigatus lectin) (Aspergillus fumigatus, UniProt Q4WW81) had pIC50 of 3.35

Entry CCCCCCO[C@@H]1O[C@@H](C)[C@@H](O)[C@@H](O)[C@@H]1O [hexyl α-L-fucopyranoside] under FleA (AFL, Aspergillus fumigatus lectin) (Aspergillus fumigatus, UniProt Q4WW81) had pIC50 of 3.44

Entry CCC/C=C/CO[C@H]1O[C@H](CO)[C@H](O)[C@H](O)[C@H]1O [(2E)-hexenyl α-D-galactopyranoside] under FleA (AFL, Aspergillus fumigatus lectin) (Aspergillus fumigatus, UniProt Q4WW81) had pIC50 of 1.81

Entry CCCCC/C=C/CO[C@@H]1O[C@@H](C)[C@@H](O)[C@@H](O)[C@@H]1O [(2E)-octenyl α-L-fucopyranoside] under FleA (AFL, Aspergillus fumigatus lectin) (Aspergillus fumigatus, UniProt Q4WW81) had pIC50 of 2.68
